Ref: PubChem BioAssay (NCI)

Experiment: NCI Yeast Anticancer Drug Screen. Data for the sgs1 mgt1 strain (AID 161);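 also: 0% = growth of cultures given vehicle only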
Details: S. cerevisiae sgs1 mgt1 strain, at 50.0 µM, active compounds read high
The panel holds about 79,000 compounds, 15% with a hit somewhere; the sample as a whole holds those more often.
Measure Name: growth inhibition (%)
Response body: numeric value in %, unit text excluded.

- C/C(=N/NC(=S)N(C)C)c1ccccc1O: 52
- N=C(N)c1ccc(Nc2ccc(C(=N)N)cc2)cc1: 90
- CCc1cccc(C(C)(C)C)c1NC(=S)N/C=C(\C#N)C(=O)c1ccc2ccccc2c1: 70.7
- COc1cccc2c1OC(c1ccc(Cl)cc1)C([N+](=O)[O-])=C2 (stereo unspecified): 87.6
- CCOC(=O)C[n+]1c(C)sc2ccccc21: 37.6

**Q:** What value of growth inhibition has been recorded for this entry: CC1(C)OC(=O)C(=NNc2ccccc2[N+](=O)[O-])C(=O)O1
**A:** 1.25

**Q:** What value of growth inhibition has been recorded for this entry: COC(=O)Cc1cn[nH]c1C(=O)OC
**A:** 1.7

**Q:** What value of growth inhibition has been recorded for this entry: O=C(CC(c1ccccc1)N1CCCCC1)OC1c2ccccc2-c2ccccc21 (stereo unspecified)
**A:** 55.8

---

# growth inhibition per record follows
Assay: NCI Yeast Anticancer Drug Screen. Data for the rad50 strain (AID 155);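 also: 0% = growth of vehicle-only cultures of the same strain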
Conditions: S. cerevisiae rad50 strain growth inhibition; at 50.0 µM (retest, dose inferred, filed as 5.0); active compounds read high
About 79,000 compounds went through this panel and 15% of them were active in at least one assay; those are over-represented in the sample as a whole.
Response body: numeric value in %, unit text excluded.

Answered examples (3):
* Fc1ccccc1CN1COc2c(cc(Cl)c3cccnc23)C1 | 71
* Cc1cccc(N2C(=O)c3ccccc3C2(c2ccccc2)N2CCCCC2)c1 (configuration not stated) | -5
* COc1ccc(-c2csc(C)n2)cc1OC | 1

**Q:** What value of growth inhibition has been recorded for this entry: COc1cc2c(cc1OC)C(C)N(C)c1c-2c(OC(C)=O)cc2cc(OC)c(OC)cc12 (configuration not stated)
**A:** 52

**Q:** What value of growth inhibition has been recorded for this entry: COC(=O)/C=C/c1c2ccccc2cc2ccccc12
**A:** 28

**Q:** What value of growth inhibition has been recorded for this entry: CN1C(C)(C)CC(O)(C#N)CC1(C)C
**A:** 99

**Q:** What value of growth inhibition has been recorded for this entry: O=C1CSC(=Nc2ccc(F)cc2F)N1Cc1cccs1
**A:** 92

---

Assay: NCI Yeast Anticancer Drug Screen. Data for the sgs1 mgt1 strain (AID 161);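 also: 0% = growth of cultures given vehicle only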
Settings: S. cerevisiae sgs1 mgt1 strain, at 50.0 µM
The panel holds about 79,000 compounds, 15% with a hit somewhere; the sample as a whole holds those more often. Calls of active or inactive are those of the source. Rule as the data show it: active = growth inhibition above about 70%; inactive = the rest.
Pick one and only one: active, inactive

* O=C(/C=C/c1cc(O)c(O)cc1O)OCCc1ccccc1 | inactive
* COc1c(C(=O)/C(=N/Nc2ccccc2)C(C)=O)c(O)c(OC)c2occc12 | active
* CC12CCC3c4cc(O)ccc4CCC3C1CCC2O (stereo unspecified) | inactive

**Q:** Per the records of this test, what outcome belongs to Nc1nc(Cl)cc(Nc2ccc(Cl)c(Cl)c2)n1 ?
**A:** active

**Q:** Per the records of this test, what outcome belongs to C=CC(=O)c1ccc2c(c1)OCCOCCOCCOCCOCCO2 ?
**A:** inactive

**Q:** Per the records of this test, what outcome belongs to CC(C)OC(=S)SSSC(=S)OC(C)C ?
**A:** active
